- Tested on: CP194
- Experiment: qHTS profiling for inhibitors of Plasmodium falciparum proliferation (AID 504749); also: nearly all actives have a fitted effect of over 60% in size; also: potency is read from the fitted curve at half-maximal effect
- Conditions: P. falciparum in erythrocytes, SYBR Green DNA, 72 h; series mostly up to 28.7 µM
Results filed as inconclusive are left out. Calls of active or inactive are those of the source. Calls follow the shape of the dose curve; as a rule, active = well fitted inhibition curve with a large enough effect; inconclusive = small, poorly fitted or top-dose-only effect; inactive = flat fitted curve, though single readings scatter.
Property Label: Potency

{"Molecule": "CCCCC(CC)COC(=O)/C=C/c1ccc(OC)cc1 (configuration not stated)", "Target Or System": "CP194", "Value Observed": "inactive"}
{"Molecule": "CCCN(CCc1cccs1)[C@H]1CCc2c(O)cccc2C1", "Target Or System": "CP194", "Value Observed": "13.5 µM (active)"}
{"Molecule": "CC[C@H](c1ccc(O)cc1)[C@@H](CC)c1ccc(O)cc1", "Target Or System": "CP194", "Value Observed": "inactive"}
{"Molecule": "CC(=O)Nc1ccc(OC(=O)c2ccccc2OC(C)=O)cc1", "Target Or System": "CP194", "Value Observed": "inactive"}
{"Molecule": "Cc1cc2c(OCC(CNC(C)(C)C)OC(=O)c3ccccc3)cccc2[nH]1 (configuration not stated)", "Target Or System": "CP194", "Value Observed": "inactive"}
{"Molecule": "O=C(CCN1CCN2CCCC2C1)N1c2ccccc2Sc2ccc(Cl)cc21 (configuration not stated)", "Target Or System": "CP194", "Value Observed": "inactive"}
{"Molecule": "Cc1ccc(O)c([C@H](CCN(C(C)C)C(C)C)c2ccccc2)c1", "Target Or System": "CP194", "Value Observed": "5.36 µM (active)"}
{"Molecule": "CC(=O)Nc1ccc(S(=O)(=O)Nc2ccc([N+](=O)[O-])cc2)cc1", "Target Or System": "CP194", "Value Observed": "inactive"}
{"Molecule": "NCCNC(=O)c1ccc(Cl)cn1", "Target Or System": "CP194", "Value Observed": "inactive"}
{"Molecule": "CCOC(=O)c1c(N)sc2c1CCN(Cc1ccccc1)C2", "Target Or System": "CP194", "Value Observed": "7.57 µM (active)"}
{"Molecule": "O=C(O)C1(C(=O)O)CCC1.[NH2-].[NH2-].[Pt+2]", "Target Or System": "CP194", "Value Observed": "inactive"}
{"Molecule": "CCOc1ccccc1C(N)=O", "Target Or System": "CP194", "Value Observed": "inactive"}

---

- Experiment: qHTS of pediatric cancer cell lines to identify multiple opportunities for drug repurposing: Primary screen for SK-N-MC cells (AID 1347093)
- Conditions: SK-N-MC viability, CellTiter-Glo luminescence, 48 h; series mostly up to 46 µM
Records with an inconclusive call do not appear. Activity calls are given as the source filed them. Calls follow the shape of the dose curve; as a rule, active = well fitted cell-killing curve with a large enough effect; inconclusive = small, poorly fitted or top-dose-only effect; inactive = no such curve, though single readings can be large or run the other way.
Labels: label 1 (active), label 0 (inactive)

{"Molecule": "CCOCCn1c(N2CCCN(C)CC2)nc2ccccc21", "Class Name": "label 0"}
{"Molecule": "NS(=O)(=O)Cc1noc2ccccc12", "Class Name": "label 0"}
{"Molecule": "CC(=O)NO", "Class Name": "label 0"}
{"Molecule": "NCCNc1cccc2ccccc12", "Class Name": "label 0"}
{"Molecule": "CC(C)CCCC(C)N (stereo unspecified)", "Class Name": "label 0"}
{"Molecule": "Cc1cccc(C)c1NC(=O)CN1CCCC1", "Class Name": "label 0"}
{"Molecule": "CC(=O)O[C@]1(C(C)=O)CC[C@H]2[C@@H]3C=C(C)C4=CC(=O)CC[C@]4(C)[C@H]3CC[C@@]21C", "Class Name": "label 0"}
{"Molecule": "COc1ccc2c(c1)c1c3n2CCN(C)C3=NCC1", "Class Name": "label 0"}
{"Molecule": "CCN(CC)CCNC(=O)COc1ccc(OC)cc1", "Class Name": "label 0"}
{"Molecule": "CC(C)(C)NC[C@H](O)COc1cccc2c1CCCC2=O", "Class Name": "label 0"}
{"Molecule": "C[N+]12CCC(CC1)C(OC(=O)C(O)(c1ccccc1)c1ccccc1)C2 (stereo unspecified)", "Class Name": "label 0"}
{"Molecule": "C/C=C/c1ccc(O)c(OC)c1", "Class Name": "label 0"}
{"Molecule": "C#C[C@]1(O)CC[C@H]2[C@@H]3CCC4=CC(=O)CC[C@@H]4[C@H]3CC[C@@]21CC", "Class Name": "label 0"}
{"Molecule": "CCCc1ncc(C[n+]2ccccc2C)c(N)n1", "Class Name": "label 0"}
{"Molecule": "CCOc1cc(OCC)c(C(=O)CCC(=O)O)cc1OCC", "Class Name": "label 0"}
{"Molecule": "CCCCCCCCNC(C)C(O)c1ccc(SC(C)C)cc1 (stereo unspecified)", "Class Name": "label 1"}
{"Molecule": "CC(C)Cc1ccc(CC(=O)O)cc1", "Class Name": "label 0"}
{"Molecule": "Cc1nc(-c2ccc(Cl)cc2)oc1COC(C)(C)C(=O)O", "Class Name": "label 0"}
{"Molecule": "CCOC(=O)c1ccc(N)cc1", "Class Name": "label 0"}
{"Molecule": "CCOC(=O)C(C#N)=C(c1ccccc1)c1ccccc1", "Class Name": "label 0"}
{"Molecule": "O=C1C(CCS(=O)c2ccccc2)C(=O)N(c2ccccc2)N1c1ccccc1 (stereo unspecified)", "Class Name": "label 0"}
{"Molecule": "CN1CCN(c2c(F)cc3c(=O)c(C(=O)O)cn4c3c2SCC4)CC1", "Class Name": "label 0"}
{"Molecule": "O=C(Nc1cccc(C2=NCCN2)c1)Nc1cccc(C2=NCCN2)c1", "Class Name": "label 0"}
{"Molecule": "CCNC(=O)/C=C/c1cccc(Br)c1", "Class Name": "label 0"}
{"Molecule": "C/C=C/C=N/NC(=O)c1ccncc1", "Class Name": "label 0"}
{"Molecule": "O=C1OC(CN2CCOCC2)CN1/N=C/c1ccc([N+](=O)[O-])o1 (stereo unspecified)", "Class Name": "label 0"}

---

- System: CP329
- Experiment: qHTS profiling for inhibitors of Plasmodium falciparum proliferation (AID 504749); also: nearly all actives have a fitted effect of over 60% in size
- Conditions: P. falciparum in erythrocytes, SYBR Green DNA, 72 h; series mostly up to 28.7 µM
Inconclusive results are not listed. Activity calls are given as the source filed them. The call rests on the fitted dose curve; in most records, active means well fitted inhibition curve with a large enough effect; inconclusive means small, poorly fitted or top-dose-only effect; inactive means flat fitted curve, though single readings scatter.
Labels: active, inactive

{"Molecule": "CC(C)NCC(O)c1ccc2ccccc2c1 (stereo not given)", "Class Name": "inactive"}
{"Molecule": "COc1cc(NS(=O)(=O)c2ccc(N)cc2)ncn1", "Class Name": "inactive"}
{"Molecule": "Cc1cccc(C)c1NC(=O)c1ccccc1C(=O)O", "Class Name": "inactive"}
{"Molecule": "Nc1nc(-c2ccccc2)c(Br)c(=O)[nH]1", "Class Name": "inactive"}
{"Molecule": "CCOC(=O)Nc1ccc2c(c1)N(C(=O)CCN1CCOCC1)c1ccccc1S2", "Class Name": "inactive"}
{"Molecule": "C/C=C/C=N/NC(=O)c1ccncc1", "Class Name": "inactive"}
{"Molecule": "COc1ccccc1N1CCN(CCCCNC(=O)c2ccc(-c3ccc(C(C)=O)cc3)cc2)CC1", "Class Name": "inactive"}
{"Molecule": "CN1CCN(c2c(F)cc3c(=O)c(C(=O)O)cn4c3c2SCC4)CC1", "Class Name": "inactive"}
{"Molecule": "COc1cc(N)c(Cl)cc1C(=O)NC1CCN(Cc2ccccc2)CC1", "Class Name": "inactive"}
{"Molecule": "CC[N+](C)(CC)CCOC(=O)C(O)(c1ccccc1)C1CCCCC1 (stereo not given)", "Class Name": "inactive"}
{"Molecule": "CCN(CC)CCNC(=O)c1cc(Br)c(N)cc1OC", "Class Name": "inactive"}
{"Molecule": "CCC1Nc2cc(Cl)c(S(N)(=O)=O)cc2S(=O)(=O)N1 (stereo not given)", "Class Name": "inactive"}
{"Molecule": "C#C[C@]1(O)CC[C@H]2[C@@H]3CCC4=CC(=O)CC[C@@H]4[C@H]3CC[C@@]21CC", "Class Name": "inactive"}
{"Molecule": "CN1CCN(CCC(=O)N2c3ccccc3Sc3ccc(C(F)(F)F)cc32)CC1", "Class Name": "inactive"}
{"Molecule": "COc1cc(C)nc(-n2nc(C)cc2OC)n1", "Class Name": "inactive"}
{"Molecule": "CC(C)Nc1cccnc1N1CCN(C(=O)c2cc3cc(NS(C)(=O)=O)ccc3[nH]2)CC1", "Class Name": "inactive"}
{"Molecule": "CCN(CC)CCNc1ccc(CO)c2sc3ccccc3c(=O)c12", "Class Name": "active"}
{"Molecule": "CC(C)(C)NC[C@H](O)COc1cccc2c1CCCC2=O", "Class Name": "inactive"}
{"Molecule": "CC(=O)OCC(=O)[C@H]1CC[C@H]2[C@@H]3CCC4=CC(=O)CC[C@]4(C)[C@H]3CC[C@]12C", "Class Name": "inactive"}
{"Molecule": "C=CCN1CCc2nc(N)sc2CC1", "Class Name": "inactive"}
{"Molecule": "CCCCC(CC)COC(=O)c1ccc(N(C)C)cc1 (stereo not given)", "Class Name": "inactive"}
{"Molecule": "Cl/C(=C\\n1cncn1)c1ccc(Cl)cc1Cl", "Class Name": "inactive"}
{"Molecule": "CC(=O)NCCCCCC(=O)O", "Class Name": "inactive"}
{"Molecule": "COc1ccc(C(=O)c2ccccc2O)c(O)c1", "Class Name": "inactive"}
{"Molecule": "O=C1C(O)=C(O)C(=O)C(O)=C1O", "Class Name": "inactive"}
{"Molecule": "OCCOCCN1CCN(C2=Nc3ccccc3Sc3ccccc32)CC1", "Class Name": "inactive"}
{"Molecule": "Cc1ccc(O)c([C@H](CCN(C(C)C)C(C)C)c2ccccc2)c1", "Class Name": "active"}
{"Molecule": "CCCCCCCCCCCCCCCC(=O)O", "Class Name": "inactive"}
{"Molecule": "CC(=O)Oc1ccc(C)cc1", "Class Name": "inactive"}
{"Molecule": "CCOc1cc(OCC)c(C(=O)CCC(=O)O)cc1OCC", "Class Name": "inactive"}
{"Molecule": "CCNC(=O)/C=C/c1cccc(Br)c1", "Class Name": "inactive"}
{"Molecule": "O=C(O)C1(C(=O)O)CCC1.[NH2-].[NH2-].[Pt+2]", "Class Name": "inactive"}
{"Molecule": "NC(N)=NCc1cccc(I)c1", "Class Name": "inactive"}
{"Molecule": "Cc1c[nH]c2ccccc12", "Class Name": "inactive"}
{"Molecule": "Cc1cc(C)cc(OCC2CNC(=O)O2)c1 (stereo not given)", "Class Name": "inactive"}
{"Molecule": "C[C@@H](O)[C@H]1C(=O)N2C(C(=O)O)=C(S[C@@H]3CN[C@H](CNS(N)(=O)=O)C3)[C@H](C)[C@H]12", "Class Name": "inactive"}
{"Molecule": "CCOCCn1c(N2CCCN(C)CC2)nc2ccccc21", "Class Name": "inactive"}
{"Molecule": "COc1ccc(C(Cl)=C(c2ccc(OC)cc2)c2ccc(OC)cc2)cc1", "Class Name": "inactive"}
{"Molecule": "NC(=O)n1c(O)c(C(=O)c2cccs2)c2cc(Cl)ccc21", "Class Name": "inactive"}
{"Molecule": "CC1(COc2ccc(CC3SC(=O)NC3=O)cc2)CCCCC1 (stereo not given)", "Class Name": "inactive"}
{"Molecule": "O=C1C(CCS(=O)c2ccccc2)C(=O)N(c2ccccc2)N1c1ccccc1 (stereo not given)", "Class Name": "inactive"}
{"Molecule": "CC(=O)Nc1ccc(OCC(O)CNC(C)C)cc1 (stereo not given)", "Class Name": "inactive"}
{"Molecule": "OC[C@H]1O[C@@H]2O[C@H]3[C@H](O)[C@@H](O)[C@@H](O[C@H]4[C@H](O)[C@@H](O)[C@@H](O[C@H]5[C@H](O)[C@@H](O)[C@@H](O[C@H]6[C@H](O)[C@@H](O)[C@@H](O[C@H]7[C@H](O)[C@@H](O)[C@@H](O[C@H]8[C@H](O)[C@@H](O)[C@@H](O[C@H]1[C@H](O)[C@H]2O)O[C@@H]8CO)O[C@@H]7CO)O[C@@H]6CO)O[C@@H]5CO)O[C@@H]4CO)O[C@@H]3CO", "Class Name": "inactive"}
{"Molecule": "CCCCNC(=O)NS(=O)(=O)c1ccc(N)cc1", "Class Name": "inactive"}
{"Molecule": "O=C(O)Cc1csc(-c2ccc(Cl)cc2)n1", "Class Name": "inactive"}

Source listed as PubChem BioAssay (NCATS).
